Here, each record is paired with measured A (PKA activity) data.
Molecular target: PKA-Iα (Homo sapiens)
Construct: made in house
Sequence (P10644 whole entry): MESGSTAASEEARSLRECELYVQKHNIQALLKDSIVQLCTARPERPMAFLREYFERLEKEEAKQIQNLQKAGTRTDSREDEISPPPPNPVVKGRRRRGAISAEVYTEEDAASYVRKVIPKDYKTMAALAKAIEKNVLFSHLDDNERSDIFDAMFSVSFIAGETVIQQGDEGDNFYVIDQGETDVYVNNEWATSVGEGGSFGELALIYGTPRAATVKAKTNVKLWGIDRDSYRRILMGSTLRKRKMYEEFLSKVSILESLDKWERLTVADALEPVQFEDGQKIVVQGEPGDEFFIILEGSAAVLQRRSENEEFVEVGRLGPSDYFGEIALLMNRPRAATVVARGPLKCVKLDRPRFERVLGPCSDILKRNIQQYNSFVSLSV
Experiment: PKA activity assay (coupled spectrophotometric, Kemptide), PKA-Iα
Format: biochemical
Conditions: PKAIα; concentration 1.00E-01 μM

{"columns": ["COMPOUND", "A (PKA activity) [U/mg]"],
 "data": [
  ["Cc1ccc(CSc2nc3c(N)ncnc3n2[C@@H]2O[C@@H]3CO[P@](O)(=S)O[C@H]3[C@H]2O)cc1", 3.8864],
  ["COC1C2OP(=O)(O)OCC2OC1n1c(Sc2ccc(Cl)cc2)nc2c(N)ncnc21 [D-007, 8-pCPT-2′-O-Me-cAMP, reference compound]", 3.7714],
  ["Nc1ncnc2c1ncn2[C@@H]1O[C@@H]2COP(=O)(O)O[C@H]2[C@H]1O [cAMP, reference compound]", "1.43E+01"],
  ["Nc1ncnc2c1nc(SCc1ccccc1)n2[C@@H]1O[C@@H]2CO[P@](O)(=S)O[C@H]2[C@H]1O", 9.4227]
]}
